Tested Target: hCA IX (Homo sapiens, UniProt Q16790)
Protocol Notes: stopped-flow CO2 hydration assay, hCA IX
Format: biochemical
Conditions Used: ratio of KI hCA II to KI hCA IX
Readout: SI II/IX
// no unit, no text: just the number

query: Under hCA IX (Homo sapiens, UniProt Q16790): SI II/IX value of Cc1cn([C@H]2C[C@H](N=[N+]=[N-])[C@@H](CO)O2)c(=O)[nH]c1=O [AZT, azidothymidine, reference compound] ?
result: 0.47

query: Under hCA IX (Homo sapiens, UniProt Q16790): SI II/IX value of COCCOc1cc2ncnc(Nc3cccc(-c4cn(CCOCCOCCOCCOCCOCCNC(=S)NCCc5ccc(S(N)(=O)=O)cc5)nn4)c3)c2cc1OCCOC [compound 14d] ?
result: 17.4

query: Under hCA IX (Homo sapiens, UniProt Q16790): SI II/IX value of COCCOc1cc2ncnc(Nc3cccc(-c4cn(CCOCCOCCOCCOCCOCCNC(=O)Nc5ccc(S(N)(=O)=O)cc5)nn4)c3)c2cc1OCCOC [compound 12b] ?
result: 0.02

query: Under hCA IX (Homo sapiens, UniProt Q16790): SI II/IX value of COCCOc1cc2ncnc(Nc3cccc(-c4cn(CCOCCOCCOCCOCCOCCNC(=S)Nc5ccc(S(N)(=O)=O)cc5)nn4)c3)c2cc1OCCOC [compound 14b] ?
result: 1.97

query: Under hCA IX (Homo sapiens, UniProt Q16790): SI II/IX value of COCCOc1cc2ncnc(Nc3cccc(-c4cn(CCOCCOCCOCCOCCOCCC(=O)NCCOc5ccc6oc(=O)ccc6c5)nn4)c3)c2cc1OCCOC [compound 11] ?
result: 7.21

query: Under hCA IX (Homo sapiens, UniProt Q16790): SI II/IX value of COCCOc1cc2ncnc(Nc3cccc(-c4cn(CCOCCOCCOCCOCCOCCNC(=O)Nc5ccc6oc(=O)ccc6c5)nn4)c3)c2cc1OCCOC [compound 13] ?
result: 46.9

query: Under hCA IX (Homo sapiens, UniProt Q16790): SI II/IX value of COCCOc1cc2ncnc(Nc3cccc(-c4cn(CCOCCOCCOCCNC(=S)Nc5ccc(S(N)(=O)=O)cc5)nn4)c3)c2cc1OCCOC [compound 8b] ?
result: 1.2

query: Under hCA IX (Homo sapiens, UniProt Q16790): SI II/IX value of COCCOc1cc2ncnc(Nc3cccc(-c4cn(CCOCCOCCOCCNC(=O)Nc5ccc(S(N)(=O)=O)cc5)nn4)c3)c2cc1OCCOC [compound 7b] ?
result: 0.85
